# Test system: Enterobacter cloacae 7513ecl-314 (AmpC)
# Experiment: In vitro antibacterial activity on clinically separated CRE strain, agar dilution MIC
# Assay type: cell-based
# Study conditions: Table 3, 7513ecl-314 Enterobacter cloacae
Where a name gives a salt, the structure may show the parent alone.
Please go through the items and note down their MIC.
Quick reminder: number only, in µg/mL, skip the unit.

Tell me the measured MIC of `O=C(NC1CC2(CNC2)C1)[C@@H]1CC[C@@H]2CN1C(=O)N2OS(=O)(=O)O` , please.
2

Fill in the blank: the reported MIC of CN1CC2(CC(NC(=O)[C@@H]3CC[C@@H]4CN3C(=O)N4OS(=O)(=O)O)C2)C1 [Compound 6, hydrogen sulfate] is ____.
2

====

Assignment: determine reported MIC for the given compounds.
# Tested on: Enterobacter cloacae 7495ecl-296 (IMP, ESBLs, AmpC)
# Experiment: In vitro antibacterial activity on clinically separated CRE strain, agar dilution MIC
# Type: cell-based
# Study conditions: Table 3, 7495ecl-296 Enterobacter cloacae
Structures can show the parent of a compound that is named as a salt.
Record the value in µg/mL, omitting the unit from your answer.

Fill blank: measured MIC of the compound `O=C(NC1CC2(CNC2)C1)[C@@H]1CC[C@@H]2CN1C(=O)N2OS(=O)(=O)O` is ____.
2

Need MIC, item CN1CC2(CC(NC(=O)[C@@H]3CC[C@@H]4CN3C(=O)N4OS(=O)(=O)O)C2)C1 [Compound 6, hydrogen sulfate]
2

====

# Experiment: Pharmacokinetics in SD rats (iv)
# Type: in vivo, SD rat
# Study conditions: male, plasma; SD rat, iv 1 mg/kg; apparent volume of distribution; read-out: Vss—obs
# Experimental: Experimental Example 1: Pharmacokinetics Experiments of the Compound of the Present Invention in Rats Test animals: 3 male SD rats, bodyweight 200-250 g for each animal. […] Plasma (20 μL) was taken and placed in a 96-well deep-well plate, and internal standard solution (300 μL) was added, subjected to vortex for 5 min, then centrifuged under 12000 rpm for 5 min, and then supernatant (200 μL) was taken and subjected to vortex for 3 min; to be analyzed by LC-MS/MS. […]
Where a name gives a salt, the structure may show the parent alone.
Outcome measure: Vd (L/kg)
Just the number in L/kg, nothing appended.

# lookup: Vd of CN1CC2(CC(NC(=O)[C@@H]3CC[C@@H]4CN3C(=O)N4OS(=O)(=O)O)C2)C1 [Compound 6 sodium salt, sulfate]
0.219

What value of measured Vd is listed for `O=C(NC1CC2(CCNCC2)C1)[C@@H]1CC[C@@H]2CN1C(=O)N2OS(=O)(=O)O` ?
0.294

For the compound O=C(NC1CCNCC1)[C@@H]1CC[C@@H]2CN1C(=O)N2OS(=O)(=O)O [MK-7655, reference compound] , what Vd is on record?
0.409

Please report the recorded Vd for NC(=O)[C@@H]1CC[C@@H]2CN1C(=O)N2OS(=O)(=O)O [AVI sodium salt, Avibactam, reference compound] .
0.535

Find the recorded Vd belonging to O=C(NC1CC2CCC(C1)N2)[C@@H]1CC[C@@H]2CN1C(=O)N2OS(=O)(=O)O (stereo partly drawn) and report it.
0.348

Could you tell me which Vd is on file for `O=C(NC1CC2(CNC2)C1)[C@@H]1CC[C@@H]2CN1C(=O)N2OS(=O)(=O)O` ?
0.261

====

# Experiment: Pharmacokinetics in SD rats (iv)
# Type: in vivo, SD rat
# Study conditions: male, SD, rat, plasma, iv, 1 mg/kg; read-out: Cl—obs (converted)
Structures can show the parent of a compound that is named as a salt.
Outcome measure: clearance (mL/min/kg)
Hi! Could you send only the number? It should be in mL/min/kg, unit omitted.

Record request: clearance value, item O=C(NC1CC2(CNC2)C1)[C@@H]1CC[C@@H]2CN1C(=O)N2OS(=O)(=O)O [Compound 2]
6.67

I have this compound here, NC(=O)[C@@H]1CC[C@@H]2CN1C(=O)N2OS(=O)(=O)O [AVI sodium salt, Avibactam, reference compound] , and I need its recorded clearance.
14.9

GET /values?readout=clearance&item= O=C(NC1CC2CCC(C1)N2)[C@@H]1CC[C@@H]2CN1C(=O)N2OS(=O)(=O)O (some centres unmarked) [Compound 4]
12.1

Suppose we examine the compound O=C(NC1CC2(CCNCC2)C1)[C@@H]1CC[C@@H]2CN1C(=O)N2OS(=O)(=O)O [Compound 1] ; what clearance value has been reported?
7.77

Give its clearance value. Item: CN1CC2(CC(NC(=O)[C@@H]3CC[C@@H]4CN3C(=O)N4OS(=O)(=O)O)C2)C1 [Compound 6 sodium salt, sulfate]
9.08

====

For each entry below, report its AUC(0-t) value.
# Experiment: Pharmacokinetics in SD rats (iv)
# Assay type: in vivo, SD rat
# Study conditions: male, plasma; SD rat, iv 1 mg/kg; area under the curve 0→t
Structures can show the parent of a compound that is named as a salt.
Please give a number only; it is taken to be in ng·h/mL.

Consider the compound shown here: `O=C(NC1CC2(CNC2)C1)[C@@H]1CC[C@@H]2CN1C(=O)N2OS(=O)(=O)O` What is its recorded AUC(0-t)?
2500

AUC(0-t) lookup needed for `O=C(NC1CC2(CCNCC2)C1)[C@@H]1CC[C@@H]2CN1C(=O)N2OS(=O)(=O)O` , thanks.
2330

Can you look up the measured AUC(0-t) of O=C(NC1CC2CCC(C1)N2)[C@@H]1CC[C@@H]2CN1C(=O)N2OS(=O)(=O)O (some centres unmarked) for me?
1390

Record request: AUC(0-t) value, item NC(=O)[C@@H]1CC[C@@H]2CN1C(=O)N2OS(=O)(=O)O [AVI sodium salt, Avibactam, reference compound]
1140

Tell me the measured AUC(0-t) of CN1CC2(CC(NC(=O)[C@@H]3CC[C@@H]4CN3C(=O)N4OS(=O)(=O)O)C2)C1 [Compound 6 sodium salt, sulfate] , please.
1840
